Experiment: Solubility in EtOAc/heptane mixtures by HPLC
Assay type: physicochemical
Settings: organic solvent or mixture, thermodynamic from solid; EtOAc/heptane 32:68 (% v/v), 45° C.
ENDPOINT: solubility (mg/mL)
// units = mg/mL; emit number, no label

Q. Answer with the recorded solubility of O=C1N[C@H](c2cncc(C#Cc3ccccc3)c2)[C@@H](c2ccccc2Cl)O1 [Compound 1] only.
A. 10

###

Test: Solubility in EtOAc/heptane mixtures by HPLC
Assay type: physicochemical
Details: organic solvent or mixture, thermodynamic from solid; EtOAc/heptane 80:20 (% v/v), 20° C.
ENDPOINT: solubility
Put your answer as a value accompanied by its unit after it.

Q. Answer with the recorded solubility of "O=C1N[C@H](c2cncc(C#Cc3ccccc3)c2)[C@@H](c2ccccc2Cl)O1" only.
A. 69 mg/mL
